B1: MMP1 (parent)
chain: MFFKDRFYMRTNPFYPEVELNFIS

variants of: B1; assay: protein stability index of a GFP-peptide fusion (GPS, HEK-293T) (PSI 1-6); higher = more stable; conditions: c terminus: a fixed tail appended;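 further: lentivirally expressed fusions sorted by FACS into six bins by GFP to DsRed ratio, PSI derived from sequencing read proportions per bin multiplied by bin number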
Overview of recorded protein stability index for various variants
Response field accepts a number only; no unit should be typed.

// worked examples, protein stability index included
# variant-designation, property-measured, observed-measurement
measured = [
    ("F7Y", "protein stability index", 1.96),
    ("Y8Q", "protein stability index", 2.87),
    ("E19Q", "protein stability index", 2.3),
    ("F2D", "protein stability index", 2.71),
    ("Y8R", "protein stability index", 2.98),
    ("Y8E", "protein stability index", 1.89),
    ("F14H", "protein stability index", 2.82),
    ("E19N", "protein stability index", 3.6),
]

Entry under review: "R10E" . Reported protein stability index?
2.37

What value of protein stability index has been reported for the following variant? "P13M"
2.66

# lookup: protein stability index of "S24N"
2.88
